target: human LPA1 (Homo sapiens, UniProt Q92633); construct: expressed in transfected cells; host or cells: Chinese hamster ovary (CHO) cells; test: LPA1 functional antagonist assay (LPA-induced calcium flux in CHO cells overexpressing human LPA1); type: cell-based; conditions: inhibition of calcium flux induced by 10 nM LPA, CHO cells overexpressing human LPA1; read-out: hLPA1 IC50
Sequence (Q92633 whole entry): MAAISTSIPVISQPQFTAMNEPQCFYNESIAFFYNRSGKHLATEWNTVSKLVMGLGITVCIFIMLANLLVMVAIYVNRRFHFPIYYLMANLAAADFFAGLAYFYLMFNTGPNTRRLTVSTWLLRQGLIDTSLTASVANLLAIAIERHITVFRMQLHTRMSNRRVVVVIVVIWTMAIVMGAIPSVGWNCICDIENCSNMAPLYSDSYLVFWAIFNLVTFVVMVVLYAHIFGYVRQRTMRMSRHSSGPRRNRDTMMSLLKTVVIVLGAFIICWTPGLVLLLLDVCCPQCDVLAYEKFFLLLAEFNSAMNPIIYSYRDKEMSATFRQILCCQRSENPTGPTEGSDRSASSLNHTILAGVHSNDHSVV
Measured IC50, listed per entry.
// units = nM; emit number, no label

>  <Compound>
COc1cccc(Cc2nnnn2Cc2c(-c3ccc(O[C@H]4CCC[C@H](C(=O)O)C4)c(C)n3)nnn2C)c1 [Example 313]

>  <IC50 / nM>
277

$$$$
>  <Compound>
Cc1nc(-c2nnn(C)c2Cn2cc(CC3CC3)nn2)ccc1O[C@H]1CCC[C@H](C(=O)O)C1 [Example 265]

>  <IC50 / nM>
40

$$$$

q: Look up IC50 of Cc1nc(-c2nnn(C)c2CNc2noc(CCC(C)F)n2)ccc1O[C@H]1CCC[C@H](C(=O)O)C1 (stereo partly shown) [Example 200] and report it.
a: 31

q: Look up IC50 of Cc1nc(-c2nnn(C)c2CNc2cnn(C3CCC3)n2)ccc1O[C@H]1CCC[C@H](C(=O)O)C1 [Example 30] and report it.
a: 91
